# protocol-notes: CHI Log D procedure
# Format: physicochemical
# cond: pH 7.4
recorded-endpoint: CHI Log D
Hey, just send me the number, nothing else.

Sample CC[C@H](C)[C@H](NC(=O)[C@H](CC(=O)O)NC(=O)[C@H](C)NC(C)=O)C(=O)N[C@]1(C)CCN(C)C(=O)OCC=CCCCCC[C@@](C)(C(=O)N[C@@H](Cc2ccccc2)C(=O)N[C@@H](Cc2c[nH]c3ccccc23)C(=O)N[C@@H](C)C(N)=O)NC(=O)[C@H](C)NC(=O)[C@H](Cc2ccccc2)NC(=O)[C@H](C)NC(=O)[C@H](C)NC(=O)[C@H](CCC(=O)O)NC(=O)[C@H](CC(=O)O)NC1=O [I-155] ; CHI Log D observed: 1.415

Sample CC[C@H](C)[C@@H]1NC(=O)[C@H](CC(=O)O)NC(=O)[C@]2(CC=CCCCC3(CCCC=CCCCCCC[C@@](C)(C(=O)N[C@@H](Cc4ccccc4)C(=O)N[C@@H](Cc4csc5ccccc45)C(=O)N[C@@H](CCC(N)=O)C(N)=O)NC(=O)[C@H](CCC(N)=O)NC(=O)[C@H](Cc4ccccc4)NC(=O)[C@H](C)NC(=O)[C@H](C)NC(=O)[C@H](CCCNC(=N)N)NC(=O)[C@H](CC(=O)O)NC3=O)NC1=O)CCCN2C(C)=O (stereo partly drawn) [I-614] ; CHI Log D observed: 2.801

Sample CC(=O)N1CCC[C@]12CC=CCCCC1(CCCC=CCCCCCC[C@@](C)(C(=O)N[C@@H](Cc3ccccc3)C(=O)N[C@@H](Cc3csc4ccccc34)C(=O)N[C@H](Cc3c[nH]cn3)C(N)=O)NC(=O)[C@H](CC(N)=O)NC(=O)[C@H](Cc3ccccc3)NC(=O)[C@H](C)NC(=O)[C@H](C)NC(=O)[C@H](CCC(=O)O)NC(=O)[C@H](CC(=O)O)NC1=O)NC(=O)[C@H](CC(C)C)NC(=O)[C@H](CC(=O)O)NC2=O (stereo partly drawn) [I-745] ; CHI Log D observed: 2.61
